assay: Metabolite profile in rat urine; assay type: in vivo, male Sprague-Dawley rats; details: group 1C (IV dose) pooled urine, 1 h collection
observed property: % HPLC (percent of HPLC peak area in the sample extract) (%)

Check out these entries, answers already filled in.
C[C@@]1(O)[C@H](O)[C@@H](COP(=O)(O)NCc2ccccc2)O[C@H]1n1cnc2c(=O)[nH]c(N)nc21: 2.29
CC(C)(CO)C(=O)SCCOP(=O)(NCc1ccccc1)OC[C@H]1O[C@@H](n2cnc3c(=O)[nH]c(N)nc32)[C@](C)(O)[C@@H]1O (mixture of isomers): 93.5

a = C[C@@]1(O)[C@H](O)[C@@H](CO)O[C@H]1n1cnc2c(=O)[nH]c(N)nc21 [2′-C-methyl guanosine, 9-(2-C-methyl-β-D-ribofuranosyl)guanine, reference compound]
b = CC(C)(CO)C(=O)SCCOP(N)(=O)OC[C@H]1O[C@@H](n2cnc3c(=O)[nH]c(N)nc32)[C@](C)(O)[C@@H]1O (single isomer, unassigned; diastereomer 2) [Compd 3 Diastereomer 2]
c = CC(C)(CO)C(=O)SCCOP(N)(=O)OC[C@H]1O[C@@H](n2cnc3c(=O)[nH]c(N)nc32)[C@](C)(O)[C@@H]1O (single isomer, unassigned; diastereomer 1) [Compd 3 Diastereomer 1]
Returns the items ordered by % HPLC (percent of HPLC peak area in the sample extract), from maximum to minimum. Use the labels to give the requested order. a, b, c

* * *

system: monkey primary hepatocytes; assay: Metabolic disposition of [^14C]-Compound 1 and [^14C]-2′-C-methyl guanosine in monkey primary hepatocytes (incubation medium, cellular extracts, nucleotide levels); format: in vitro ADME, Cynomolgus monkey; conditions: monkey hepatocytes Cy234; 10 μM [^14C]-2′-C-methyl guanosine; 8 h
observed property: Major metabolites observed in cellular extracts (% of total radioactivity)

Check out these entries, answers already filled in.
C[C@@]1(O)[C@H](O)[C@@H](CO)O[C@H]1n1cnc2c(=O)[nH]c(N)nc21 [2′-C-methyl guanosine, 9-(2-C-methyl-β-D-ribofuranosyl)guanine, reference compound]: 45.8 % of total radioactivity
C[C@@]1(O)[C@H](O)[C@@H](COP(=O)(O)OP(=O)(O)OP(=O)(O)O)O[C@H]1n1cnc2c(=O)[nH]c(N)nc21 [Compound 7]: 43.0 % of total radioactivity
C[C@@]1(O)[C@H](O)[C@@H](COP(=O)(O)O)O[C@H]1n1cnc2c(=O)[nH]c(N)nc21 [Compound 5]: 3.32 % of total radioactivity

Now turn to the next molecule.
# Major metabolites observed in cellular extracts (% of total radioactivity) lookup, item C[C@@]1(O)[C@H](O)[C@@H](COP(=O)(O)OP(=O)(O)O)O[C@H]1n1cnc2c(=O)[nH]c(N)nc21 [Compound 6] 7.90 % of total radioactivity

* * *

system: Huh-7 cells; assay: Metabolic disposition of [^14C]-Compound 1 and [^14C]-2′-C-methyl guanosine in Huh-7 cells (incubation medium, cellular extracts, nucleotide levels); type: in vitro ADME, human; conditions: Huh7; 10 μM [^14C]-2′-C-methyl guanosine; 72 h
Listing of entries alongside the reported Major metabolites observed in cellular extracts (% of total radioactivity).

C[C@@]1(O)[C@H](O)[C@@H](CO)O[C@H]1n1cnc2c(=O)[nH]c(N)nc21 [2′-C-methyl guanosine, 9-(2-C-methyl-β-D-ribofuranosyl)guanine, reference compound]: 89.6 % of total radioactivity

Now turn to the next compound.
# Major metabolites observed in cellular extracts (% of total radioactivity) lookup, item "C[C@@]1(O)[C@H](O)[C@@H](COP(=O)(O)OP(=O)(O)OP(=O)(O)O)O[C@H]1n1cnc2c(=O)[nH]c(N)nc21" 10.4 % of total radioactivity

* * *

test: Metabolite profile in rat liver; format: in vivo, male Sprague-Dawley rats; details: male, Sprague-Dawley, rat, liver, po, 100 mg/kg, rat liver, PO dose, 2 h; read-out: liver metabolite concentration
observed property: concentration at 2 h (ng/g)
Just the number in ng/g, nothing appended.

# concentration at 2 h lookup, item "C[C@@]1(O)[C@H](O)[C@@H](COP(=O)(O)OP(=O)(O)O)O[C@H]1n1cnc2c(=O)[nH]c(N)nc21" 1100

* * *

Assay: Metabolite profile in rat liver
Assay type: in vivo, male Sprague-Dawley rats
Details: group 1 (IV dose) pooled liver, 2 h
Method: Homogenates were prepared on dry ice in 70% methanol-30% water containing 20 mM EDTA and 20 mM EGTA (about 1× (w/v) weight of the liver) and were stored frozen. […] The supernatant was transferred to a tube and total volume was measured. […] Radioactivity of each supernatant was determined by LSC of duplicate aliquots (100 μL each) for extraction recovery. […] Duplicate aliquots of the reconstituted samples were analyzed by LSC. Each sample was analyzed by HPLC method 2. […]
observed property: % HPLC (percent of HPLC peak area in the sample extract) (%)

A = C[C@@]1(O)[C@H](O)[C@@H](COP(=O)(O)O)O[C@H]1n1cnc2c(=O)[nH]c(N)nc21 [Compound 5]
B = C[C@@]1(O)[C@H](O)[C@@H](CO)O[C@H]1n1cnc2c(=O)[nH]c(N)nc21 [2′-C-methyl guanosine, 9-(2-C-methyl-β-D-ribofuranosyl)guanine, reference compound]
C = C[C@@]1(O)[C@H](O)[C@@H](COP(=O)(O)OP(=O)(O)O)O[C@H]1n1cnc2c(=O)[nH]c(N)nc21 [Compound 6]
D = C[C@@]1(O)[C@H](O)[C@@H](COP(=O)(O)OP(=O)(O)OP(=O)(O)O)O[C@H]1n1cnc2c(=O)[nH]c(N)nc21 [Compound 7]
From the items above, give an ordering by % HPLC (percent of HPLC peak area in the sample extract) that starts at the lowest reported number. Use the labels to give the requested order. D, B, C, A
(D: 0.29%, B: 13.8%, C: 21.6%, A: 62.6%)

* * *

tested on: rat primary hepatocytes; assay: Metabolic disposition of [^14C]-Compound 1 and [^14C]-2′-C-methyl guanosine in rat primary hepatocytes (incubation medium, cellular extracts, nucleotide levels); format: in vitro ADME, Sprague Dawley rat; details: rat hepatocytes (Rs458), 1 μM [^14C]-Compound 1, 0 h
observed property: metabolites observed in medium (% of total radioactivity)

C[C@@]1(O)[C@H](O)[C@@H](CO)O[C@H]1n1cnc2c(=O)[nH]c(N)nc21 [2′-C-methyl guanosine, 9-(2-C-methyl-β-D-ribofuranosyl)guanine, reference compound]: BLD
C[C@@]1(O)[C@H](O)[C@@H](COP(=O)(O)NCc2ccccc2)O[C@H]1n1cnc2c(=O)[nH]c(N)nc21: 1.05%
C[C@@]1(O)[C@H](O)[C@@H](COP(=O)(O)O)O[C@H]1n1cnc2c(=O)[nH]c(N)nc21: BLD
CC(C)(CO)C(=O)SCCOP(N)(=O)OC[C@H]1O[C@@H](n2cnc3c(=O)[nH]c(N)nc32)[C@](C)(O)[C@@H]1O (mixture of isomers): BLD

* * *

assay: Excretion of administered dose in rat urine and feces; format: in vivo, male Sprague-Dawley rats; conditions: Oral; 24 h after [14C]Compound 1
Listing of entries alongside the reported Percent of Dose, Total (urine, feces and liver).

# Percent of Dose, Total (urine, feces and liver) lookup, item CC(C)(CO)C(=O)SCCOP(=O)(NCc1ccccc1)OC[C@H]1O[C@@H](n2cnc3c(=O)[nH]c(N)nc32)[C@](C)(O)[C@@H]1O (mixture of isomers) [Compound 1] 65.6% of Dose

# Percent of Dose, Total (urine, feces and liver) lookup, item C[C@@]1(O)[C@H](O)[C@@H](COP(=O)(O)NCc2ccccc2)O[C@H]1n1cnc2c(=O)[nH]c(N)nc21 [Compound 2] 0.001% of Dose

# Percent of Dose, Total (urine, feces and liver) lookup, item C[C@@]1(O)[C@H](O)[C@@H](CO)O[C@H]1n1cnc2c(=O)[nH]c(N)nc21 [2′-C-methyl guanosine, 9-(2-C-methyl-β-D-ribofuranosyl)guanine, reference compound] 28.3% of Dose

# Percent of Dose, Total (urine, feces and liver) lookup, item C[C@@]1(O)[C@H](O)[C@@H](COP(=O)(O)OP(=O)(O)O)O[C@H]1n1cnc2c(=O)[nH]c(N)nc21 [Compound 6] 0.08% of Dose

* * *

assay: Metabolite profile in rat liver; type: in vivo, male Sprague-Dawley rats; conditions: male, Sprague-Dawley, rat, liver, iv, 50 mg/kg, group 1 (IV dose) pooled liver, 2 h; read-out: liver concentration as μg equivalents/g
observed property: concentration at 2 h (ng/g)

C[C@@]1(O)[C@H](O)[C@@H](COP(=O)(O)O)O[C@H]1n1cnc2c(=O)[nH]c(N)nc21: 129000

1 = C[C@@]1(O)[C@H](O)[C@@H](COP(=O)(O)OP(=O)(O)O)O[C@H]1n1cnc2c(=O)[nH]c(N)nc21
2 = C[C@@]1(O)[C@H](O)[C@@H](COP(=O)(O)OP(=O)(O)OP(=O)(O)O)O[C@H]1n1cnc2c(=O)[nH]c(N)nc21
3 = C[C@@]1(O)[C@H](O)[C@@H](CO)O[C@H]1n1cnc2c(=O)[nH]c(N)nc21 [2′-C-methyl guanosine, 9-(2-C-methyl-β-D-ribofuranosyl)guanine, reference compound]
Order by concentration at 2 h, ascending. Use the labels to give the requested order. 2, 3, 1
(2: 600 ng/g, 3: 28400 ng/g, 1: 44400 ng/g)

# credit: patent US20100003217A1
